- subject.of.test: VAP-1 (amine oxidase [copper-containing] 3) (Bos taurus)
- Sequence (Q9TTK6 whole entry): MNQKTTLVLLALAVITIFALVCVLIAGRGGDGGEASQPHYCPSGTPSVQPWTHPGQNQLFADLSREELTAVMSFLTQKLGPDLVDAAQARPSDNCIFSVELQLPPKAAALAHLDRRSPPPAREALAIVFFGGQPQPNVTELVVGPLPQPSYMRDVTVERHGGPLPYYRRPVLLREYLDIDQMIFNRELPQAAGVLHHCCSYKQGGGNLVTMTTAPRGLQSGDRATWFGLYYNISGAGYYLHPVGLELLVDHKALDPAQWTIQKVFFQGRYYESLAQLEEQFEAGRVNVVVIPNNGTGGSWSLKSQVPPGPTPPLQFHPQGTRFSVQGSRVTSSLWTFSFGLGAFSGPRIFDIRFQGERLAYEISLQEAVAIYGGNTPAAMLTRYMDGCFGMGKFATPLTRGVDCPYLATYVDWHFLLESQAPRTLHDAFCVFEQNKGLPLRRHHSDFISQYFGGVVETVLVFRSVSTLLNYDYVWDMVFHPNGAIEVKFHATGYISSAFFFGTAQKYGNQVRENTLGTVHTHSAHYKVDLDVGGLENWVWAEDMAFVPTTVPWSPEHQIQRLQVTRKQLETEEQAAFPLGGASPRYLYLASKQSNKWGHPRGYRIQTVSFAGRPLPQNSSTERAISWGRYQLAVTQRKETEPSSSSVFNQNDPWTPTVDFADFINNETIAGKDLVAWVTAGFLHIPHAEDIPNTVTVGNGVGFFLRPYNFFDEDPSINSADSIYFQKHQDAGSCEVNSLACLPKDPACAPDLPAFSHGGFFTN
- protocol.notes: Stability of compound assessed as bovine plasma VAP-1 mediated drug degradation by measuring parent compound remaining at 10 uM incubated for 120 mins by HPLC-MS analysis
- Assay type: ADME, cell-free
- protocol.conditions: cattle, bovine plasma VAP-1 (amine oxidase [copper-containing] 3), read-out: Stability

# smiles, unit, value.qualifier, remaining at 2 h, 10 µM
rows = [
    ("N#Cc1ccc(-c2nnn(CCCCCCNC(=O)CN)n2)cc1", "%", "=", 29),
    ("NCC(=O)NCCCCCCn1nnc(-c2ccccc2)n1", "%", "<", 5),
    ("NCC(=O)NCc1ccccc1Cn1nnc(-c2ccccc2)n1", "%", "=", 56),
    ("CS(=O)(=O)c1ccc(-c2nnn(CCCCCCNC(=O)CN)n2)cc1", "%", "<", 5),
    ("NCCCCCCn1nnc(-c2ccccc2)n1", "%", "<", 5),
    ("CN(Cc1cccc(Cn2nnc(-c3ccccc3)n2)c1)C(=O)CN", "%", "=", 45),
]

====

- subject.of.test: UniProt:Q9TTK6
- protocol.notes: Stability of compound assessed as bovine plasma VAP-1 mediated drug degradation by measuring parent compound remaining at 1 uM incubated for 60 mins by HPLC-MS analysis
- Format: ADME, cell-free
- protocol.conditions: cattle, bovine plasma VAP-1 (amine oxidase [copper-containing] 3), read-out: Stability
value.kind: remaining at 1 h, 1 µM

# smiles, assay.result
data = [
    ("Cl.NCC(=O)NCc1cccc(Cn2nnc(-c3ccccc3)n2)c1", "< 5%"),
    ("Cl.N#Cc1ccc(-c2nnn(Cc3cccc(CNC(=O)CN)c3)n2)cc1", "< 5%"),
    ("CC(C)(C)NC(=O)c1ccc(OC/C(=C/F)CN)cc1", "> 95%"),
]

====

- subject.of.test: VAP-1 (amine oxidase [copper-containing] 3) (Bos taurus, UniProt Q9TTK6)
- protocol.notes: Stability of compound assessed as bovine plasma VAP-1 mediated drug degradation by measuring parent compound remaining at 10 uM incubated for 30 mins by HPLC-MS analysis
- Type: ADME, cell-free
- protocol.conditions: cattle, bovine plasma VAP-1 (amine oxidase [copper-containing] 3), read-out: Stability

# smiles, subject.of.test, value.qualifier, remaining at 0.5 h, 10 µM / %
records = [
    ("N#Cc1ccc(-c2nnn(CCCCCCNC(=O)CN)n2)cc1", "VAP-1 (amine oxidase [copper-containing] 3) (Bos taurus, UniProt Q9TTK6)", "=", 79),
    ("NCC(=O)NCc1ccc(Cn2nnc(-c3ccccc3)n2)cc1", "VAP-1 (amine oxidase [copper-containing] 3) (Bos taurus, UniProt Q9TTK6)", "=", 82),
    ("CN(Cc1cccc(Cn2nnc(-c3ccccc3)n2)c1)C(=O)CN", "VAP-1 (amine oxidase [copper-containing] 3) (Bos taurus, UniProt Q9TTK6)", "=", 85),
    ("CC(C)(C)NC(=O)c1ccc(OC/C(=C/F)CN)cc1", "VAP-1 (amine oxidase [copper-containing] 3) (Bos taurus, UniProt Q9TTK6)", ">", 95),
    ("Cl.NCC(=O)NCc1cccc(Cn2nnc(-c3ccccc3)n2)c1", "VAP-1 (amine oxidase [copper-containing] 3) (Bos taurus, UniProt Q9TTK6)", ">", 95),
    ("Cl.N#Cc1ccc(-c2nnn(Cc3cccc(CNC(=O)CN)c3)n2)cc1", "VAP-1 (amine oxidase [copper-containing] 3) (Bos taurus, UniProt Q9TTK6)", "=", 95),
    ("NCC(=O)NCc1ccccc1Cn1nnc(-c2ccccc2)n1", "VAP-1 (amine oxidase [copper-containing] 3) (Bos taurus, UniProt Q9TTK6)", "=", 86),
    ("NCC(=O)NCCCCCCn1nnc(-c2ccccc2)n1", "VAP-1 (amine oxidase [copper-containing] 3) (Bos taurus, UniProt Q9TTK6)", "=", 58),
    ("NCC(=O)NCc1cccc(-c2ccccc2)c1", "VAP-1 (amine oxidase [copper-containing] 3) (Bos taurus, UniProt Q9TTK6)", "=", 85),
    ("CS(=O)(=O)c1ccc(-c2nnn(CCCCCCNC(=O)CN)n2)cc1", "VAP-1 (amine oxidase [copper-containing] 3) (Bos taurus, UniProt Q9TTK6)", "=", 63),
    ("NCCCCCCn1nnc(-c2ccccc2)n1", "VAP-1 (amine oxidase [copper-containing] 3) (Bos taurus, UniProt Q9TTK6)", "<", 5),
]

====

- subject.of.test: VAP-1 (amine oxidase [copper-containing] 3) (Bos taurus, UniProt Q9TTK6)
- Sequence (Q9TTK6 whole entry): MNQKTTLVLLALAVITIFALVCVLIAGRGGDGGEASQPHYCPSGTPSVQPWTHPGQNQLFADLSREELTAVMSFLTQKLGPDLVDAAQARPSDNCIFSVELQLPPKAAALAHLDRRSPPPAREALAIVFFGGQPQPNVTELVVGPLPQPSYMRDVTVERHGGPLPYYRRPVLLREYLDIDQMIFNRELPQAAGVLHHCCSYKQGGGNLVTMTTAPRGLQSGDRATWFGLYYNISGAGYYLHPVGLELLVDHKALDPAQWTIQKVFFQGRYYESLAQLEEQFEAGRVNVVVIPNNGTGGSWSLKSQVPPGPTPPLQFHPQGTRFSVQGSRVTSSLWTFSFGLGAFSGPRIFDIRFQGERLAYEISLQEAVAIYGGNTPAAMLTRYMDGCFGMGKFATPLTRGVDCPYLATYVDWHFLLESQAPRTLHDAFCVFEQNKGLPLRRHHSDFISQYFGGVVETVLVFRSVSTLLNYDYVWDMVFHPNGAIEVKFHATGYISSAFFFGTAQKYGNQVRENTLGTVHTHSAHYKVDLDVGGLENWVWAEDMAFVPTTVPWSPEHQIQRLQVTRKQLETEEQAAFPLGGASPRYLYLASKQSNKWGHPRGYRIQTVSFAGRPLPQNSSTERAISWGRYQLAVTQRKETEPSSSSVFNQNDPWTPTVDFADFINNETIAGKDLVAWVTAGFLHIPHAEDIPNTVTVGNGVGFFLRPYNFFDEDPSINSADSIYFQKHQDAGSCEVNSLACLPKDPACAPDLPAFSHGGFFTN
- protocol.notes: Stability of compound assessed as bovine plasma VAP-1 mediated drug degradation by measuring parent compound remaining at 10 uM incubated for 120 mins by HPLC-MS analysis
- Format: ADME, cell-free
- protocol.conditions: cattle, bovine plasma VAP-1 (amine oxidase [copper-containing] 3), read-out: Stability
value.kind: remaining at 2 h, 10 µM (%)

# smiles, value.qualifier, assay.result
measured = [
    ("CC(C)(C)NC(=O)c1ccc(OC/C(=C/F)CN)cc1", ">", 95),
    ("NCC(=O)NCc1cccc(-c2ccccc2)c1", "=", 23),
    ("Cl.NCC(=O)NCc1cccc(Cn2nnc(-c3ccccc3)n2)c1", "=", 84),
    ("NCC(=O)NCc1ccc(Cn2nnc(-c3ccccc3)n2)cc1", "=", 45),
    ("Cl.N#Cc1ccc(-c2nnn(Cc3cccc(CNC(=O)CN)c3)n2)cc1", "=", 81),
]

====

- subject.of.test: Amine oxidase [copper-containing] 3 (Bos taurus)
- protocol.notes: Inhibition of bovine plasma VAP-1 using 6-(5-Pheny1-2H-tetrazol-2-yl)hexan-1-amine as substrate measured after 30 mins by UV-HPLC analysis
- Type: cell-free
pIC50: −log10 of the molar value.

# smiles, value.qualifier, pIC50
data = [
    ("NCC(=O)NCCCCn1nnc(-c2ccccc2)n1", "<", 5.00),
    ("NCC(=O)NCCCCCCn1nnc(-c2ccc(N3CCOCC3)cc2)n1", "=", 5.12),
    ("CN(Cc1cccc(Cn2nnc(-c3ccccc3)n2)c1)C(=O)CN", "<", 5.00),
    ("NCC(=O)NCc1ccccc1Cn1nnc(-c2ccccc2)n1", "<", 5.00),
    ("COC(=O)c1ccc(-c2nnn(CCCCCCNC(=O)CN)n2)cc1", "=", 5.14),
    ("CC(C)(C)NC(=O)c1ccc(OC/C(=C/F)CN)cc1", "=", 6.00),
    ("NCC(=O)NCCCCCCn1cnc(-c2ccccc2)c1", "<", 5.00),
    ("NCC(=O)NCCCCCn1nnc(-c2ccccc2)n1", "=", 5.03),
    ("NCC(=O)NCCCCCCn1nnc(-c2ccc(Cl)cc2)n1", "=", 5.46),
    ("NCC(=O)NCCCCCCn1nnc(-c2cccs2)n1", "=", 5.25),
    ("NCC(=O)NCCCCCCn1nnc(-c2ccc(C(N)=O)cc2)n1", "=", 5.40),
    ("NCC(=O)Nc1ccc(CCn2nnc(-c3ccccc3)n2)cc1", "<", 5.00),
]
